target: wild-type HIV-1 protease (Human immunodeficiency virus type 1 group M subtype B); assay: Assay for inhibition of microbial expressed HIV protease; assay type: biochemical; conditions: wild-type HIV-1 protease expressed in E. coli, peptide substrate, pH 5.5; read-out: Enzyme Inhibition - IC50
Reported IC50 values for the following compounds.
Reply with just the number (in pM).

Look over these answered cases.
compound | parameter | test_result
CC[C@@H](CCC[C@@H](CO)N(CCC(C)C)S(=O)(=O)c1ccc(N)cc1)NC(=O)[C@@H](NC(=O)OC)C(c1ccccc1)c1ccccc1 [Example D2] | IC50 | 16
COC(=O)N[C@@H](Cc1ccccc1Cl)C(=O)N[C@H](CCC[C@@H](CO)N(CCC(C)C)S(=O)(=O)c1ccc(CO)cc1)C(C)C | IC50 | 1330
CC[C@@H](CCC[C@@H](CO)N(CC(C)C)S(=O)(=O)c1ccc(CO)cc1)NC(=O)[C@H](Cc1ccccc1Cl)NC(=O)OC | IC50 | 419
CC[C@@H](CCC[C@@H](CO)N(CCC(C)C)S(=O)(=O)c1ccc(N)cc1)NC(=O)[C@@H](NC(=O)OC)C1c2ccccc2C=Cc2ccccc21 | IC50 | 10
CC[C@@H](CCC[C@@H](CO)N(CC(C)C)S(=O)(=O)c1ccc(N)cc1)NC(=O)[C@@H](NC(=O)OC)C(c1ccccc1)c1ccccc1 | IC50 | 109
CC(C)CCN([C@@H](CCCCNC(=O)[C@@H](N)C(c1ccccc1)c1ccccc1)C(C)O)S(=O)(=O)c1ccc(N)cc1 (mixture of isomers) | IC50 | 430
CC[C@@H](CCC[C@@H](CO)N(C(C)C)S(=O)(=O)c1ccc(N)cc1)NC(=O)[C@@H](NC(=O)OC)C(c1ccccc1)c1ccccc1 | IC50 | 755
Cc1ccc(S(=O)(=O)N(CCC(C)C)[C@H](CO)CC(C)CCNC(=O)[C@@H](N)C(c2ccccc2)c2ccccc2)cc1 (some centres unmarked) | IC50 | 510
COC(=O)N[C@H](C(=O)N[C@@H](C)CCC[C@@H](CO)N(CCC(C)C)S(=O)(=O)c1ccc(N)c(F)c1)C(c1ccccc1)c1ccccc1 | IC50 | 12
CCCN([C@H](CO)CCC[C@@H](NC(=O)[C@@H](NC(=O)OC)C(c1ccccc1)c1ccccc1)C1CC1)S(=O)(=O)c1ccc(CO)cc1 | IC50 | 58

// query Any idea what IC50 was measured for "C=C[C@@H](CCC[C@@H](CO)N(CCC(C)C)S(=O)(=O)c1ccc(CO)cc1)NC(=O)[C@@H](NC(=O)OC)C(c1ccccc1)c1ccccc1" ?
// result 5

// query What value of measured IC50 is listed for "COC(=O)N[C@H](C(=O)N[C@@H](C)CCC[C@@H](CO)N(C(C)C)S(=O)(=O)c1ccc([C@H](C)O)cc1)C(c1ccccc1)c1ccccc1" ?
// result 15

// query IC50 value for entry COC(=O)NC(Cc1cccc(Cl)c1Cl)C(=O)N[C@@H](C)CCC[C@@H](CO)N(C(C)C)S(=O)(=O)c1ccc(CO)cc1 (some centres unmarked)
// result 41

// query What does the record list as IC50 for "CC[C@@H](CCC[C@@H](CO)N(CCC(C)C)S(=O)(=O)c1ccc(N)c(F)c1)NC(=O)[C@@H](NC(=O)OC)C(c1ccccc1)c1ccccc1" ?
// result 54

// query Requested field: IC50. Item: "COC(=O)N[C@H](C(=O)N[C@@H](C)CCC[C@@H](CO)N(C(C)C)S(=O)(=O)c1ccc(C(C)=O)cc1)C(c1ccccc1)c1ccccc1"
// result 284

// query Suppose we examine the compound "COC(=O)N[C@H](C(=O)N[C@H](CCC[C@@H](CO)N(CCC(C)C)S(=O)(=O)c1ccc(Cl)cc1)C1CC1)C(c1ccccc1)c1ccccc1" ; what IC50 value has been reported?
// result 201

// query State the recorded IC50 for this entry: "COC(=O)N[C@@H](Cc1ccccc1Cl)C(=O)N[C@@H](C)CCC[C@@H](CO)N(C)S(=O)(=O)c1ccc(CO)cc1"
// result 3200
